The values you see were collected from ChEMBL document CHEMBL1130875.

Target: Protein kinase C alpha type (Homo sapiens)
Assay: Displacement of [20-3H]phorbol-12,13-dibutyrate from a recombinant PK-C alpha
readout-kind: Ki

I would be grateful if you could share the reported Ki for CCCCCCCCCCCCCCS(=O)(=O)OCC1(CO)CCC(=O)O1 (centres undefined) .
90.7 nM

I would be grateful if you could share the reported Ki for CCCCCCCCCCCCC/C=C1\CC(CO)(COC(C)=O)OS1(=O)=O (centres undefined) .
320 nM

I would be grateful if you could share the reported Ki for CCCCCCCCCCCCCC(=O)OCC1(CO)CCS(=O)(=O)O1 (centres undefined) .
1040 nM

I would be grateful if you could share the reported Ki for CCCCCCCCCCCCC/C=C1\CC(CO)(COS(C)(=O)=O)OC1=O (centres undefined) .
823 nM
